system: LOX IMVI melanoma; experiment: NCI-60 one-dose screen, 48 h; settings: 10 µM unless noted
Compounds without any hit were thinned out: in the full panel of roughly 83,000, 20% have a hit. Calls of active or inactive are those of the source. Rule for the calls: active = growth percent below 10; inactive = the rest.
API: response.call in t = active, f = inactive

Ask | Test call, this compound: CN1CCN(c2ccc(NC(=O)c3cncnc3Nc3ccc(OCc4ccccn4)c(Cl)c3)cc2)CC1
Reply | t

Ask | Test call, this compound: COc1ccc(-c2csc(NC(=O)CSc3nc(-c4ccccc4)cc(=O)[nH]3)n2)cc1
Reply | f

Ask | Test call, this compound: COC(=O)/C(CCC=C(C)C)=C1\[C@@H](OC(C)=O)C[C@@]2(C)[C@H]1C[C@@H](O)[C@H]1[C@@]3(C)CC[C@H](NCCN)[C@@H](C)[C@@H]3CC[C@@]12C
Reply | f

Ask | Test call, this compound: CNC(=O)c1c(NC(=O)c2ccc(C(F)(F)F)cc2)sc2c1CCC(=O)C2
Reply | t

---

tested on: OVCAR-5 ovarian; assay: NCI-60 one-dose screen, 48 h (100 = growth as untreated, 0 = no growth, -100 = all killed); conditions: 10 µM unless noted
The panel holds about 83,000 compounds, 20% with a hit somewhere; the sample as a whole holds those more often.
Assign growth to each entry below.
Give bare numbers, in %.

Look over these answered cases.
- compound: "O=C1/C(=C/c2ccc(-c3ccc(Br)cc3)o2)SC(=S)N1CCc1ccc(O)cc1"
  system-under-test: "OVCAR-5 ovarian"
  measured-value: 86
- compound: "CC1Cc2c(Cl)ncnc2N(C)c2ccc(F)cc21 (stereo not given)"
  system-under-test: "OVCAR-5 ovarian"
  measured-value: 99.9

For every listed record, write down its growth.
1. Cc1cc(=O)[nH]c2c(C#N)cnn12
2. COc1cc(CNS(=O)(=O)c2ccc(C)cc2)ccc1OCc1cn(-c2ccc(F)cc2)nn1
3. N#CC1=C(N)Oc2c(sc3c(F)cccc23)C1c1ccc(F)cc1 (stereo not given)
4. Cc1c(-c2nc3ccc(F)cc3c(=O)[nH]2)c2ccccc2n1C
5. O=C(NCc1ccccc1)Nc1ccccc1CNc1nc(Nc2ccc(OCCN3CCCC3)cc2)ncc1Cl
6. CC(C)c1ccc(COCc2cc(CN3CCCC3)c(O)c3ncccc23)cc1
7. O=C(Cn1c(=O)sc2ccccc21)NNS(=O)(=O)c1ccccc1[N+](=O)[O-]

Reply |
97.7
102
61.5
79.4
112
32.8
100

Note to self: growth recorded for CN(C)CC(=O)Nc1ccc2ncnc(Nc3ccc(Oc4cccc(C(F)(F)F)c4)c(Cl)c3)c2c1 was 82.6

---

system: HCT-116 colon; assay: NCI-60 one-dose screen, 48 h (100 = growth as untreated, 0 = no growth, -100 = all killed); conditions: 10 µM unless noted
The panel holds about 83,000 compounds, 20% with a hit somewhere; the sample as a whole holds those more often.
endpoint-label: growth (%)
Give bare numbers, in %.

Look over these answered cases.
- compound: "CN[C@]12CC3(C=CC(=O)C=C3)O[C@@]1(Cc1ccc(OC)cc1)N(C)C(=O)N2"
  units-text: "%"
  measured-value: -35.2
- compound: "C#CCOc1ccc2ncnc(Nc3ccc(NC(=O)CCl)cc3)c2c1"
  units-text: "%"
  measured-value: 0.822
- compound: "O=C1/C(=C/c2ccc(F)cc2)COc2ccc(O)c(O)c21"
  units-text: "%"
  measured-value: -3.28

For every listed record, write down its growth.
1. CCOC(=O)c1cc2c(=O)oc3ccccc3c2oc1=O
2. N#CC1CCc2c(c(-c3cn[nH]c3C(F)(F)F)nc3c(F)cc4[nH]ncc4c23)C1 (stereo not given)
3. Cc1ccc2c(n1)C(=O)c1[nH]c3ccccc3c1C2=O

Reply |
[109, 5.5, 22]

For every listed record, write down its growth.
1. C/C(Nc1ccc(Cl)c(Cl)c1)=C1\CCOC1=O
2. CC(C)=NNc1ccccn1
3. Oc1ccc(CN2CCC(N3CCCCC3)CC2)c2cccnc12
4. C=C1C(=O)O[C@H]2[C@H]1CC/C(COC(=O)CCSCCC(=O)OC/C1=C/CC[C@@]3(C)O[C@H]3[C@H]3OC(=O)C(=C)[C@@H]3CC1)=C\CC[C@@]1(C)O[C@@H]21

Reply |
80.7
23.6
18.9
-60.2

---

System: OVCAR-4 ovarian
Assay: NCI-60 one-dose screen, 48 h
Conditions: 10 µM unless noted
Procedure: Growth inhibition of the OVCAR-4 human tumor cell line is measured as a screen for anti-cancer activity. Cells are grown in 96 well plates and exposed to the test compound for 48 hours. Compounds are tested at a single concentration, which is 10^-5 M for most compounds. The reported endpoint is percent growth (GI% or GIPRCNT), where numbers from 0 - 100% represent growth inhibition, and numbers from -100% - 0 represent cell death. For example, a value of 40 represents 60% growth inhibition. […]
About 83,000 compounds went through this panel and 20% of them were active in at least one assay; those are over-represented in the sample as a whole. The source made the active and inactive calls. Rule for the calls: active = growth percent below 10; inactive = the rest.
API: response.call in true (1) (active), false (0) (inactive)

Recorded results for 3 compounds are shown here.
- compound: "CC(C)CCC[C@@H](C)[C@H]1CC[C@H]2[C@@H]3CC=C4C[C@@H](C(C(=O)O)C(=O)O)CC[C@]4(C)[C@H]3CC[C@]12C"
  label-class: "true (1)"
- compound: "C=C(C)[C@@H]1CC[C@]2(C(=O)O)CC[C@]3(C)[C@H](CC[C@@H]4[C@@]5(C)C[C@@H](Cc6cn(CCO[C@@H]7O[C@H](COC(C)=O)[C@H](OC(C)=O)[C@H](OC(C)=O)[C@H]7OC(C)=O)nn6)[C@H](O)C(C)(C)[C@@H]5CC[C@]43C)[C@@H]12"
  label-class: "false (0)"
- compound: "COC(=O)c1c2c(c(C)[n+]([O-])c1C)C(=O)C=C(NCc1ccc(OC)cc1)C2=O"
  label-class: "true (1)"

Ask | Test call, this compound: O=c1c2cc(-c3ccccc3)sc2nc2sc(-c3ccccc3)nn12
Reply | false (0)

Ask | Test call, this compound: COc1ccc(/C=N/C2=C(C#N)C(c3cccc(Cl)c3)c3c(ccc4ccccc34)O2)cc1 (configuration not stated)
Reply | false (0)

Ask | Test call, this compound: CC1(C)CC[C@]2(C(=O)O)CC[C@]3(C)C(=CC[C@@H]4[C@@]5(C)C/C(=C/O)C(=O)C(C)(C)[C@@H]5CC[C@]43C)[C@@H]2C1
Reply | false (0)

Ask | Test call, this compound: Cc1ccc(-c2nc3nc(-c4ccccc4)nc(N4CCNCC4)c3o2)cc1
Reply | true (1)

Ask | Test call, this compound: CC(C)(C)n1cc(-c2ccnc(NCCNS(=O)(=O)c3cccc4ccccc34)c2)c(-c2cccc(F)c2)n1
Reply | true (1)

---

system: HCT-15 colon; assay: NCI-60 one-dose screen, 48 h; settings: 10 µM unless noted
About 83,000 compounds went through this panel and 20% of them were active in at least one assay; those are over-represented in the sample as a whole. The source made the active and inactive calls. The calls were made as follows: active = growth percent below 10; inactive = the rest.
API: response.call in active, inactive

- compound: "CCOc1nc(-c2ccccc2)cc2c(O)c(C(=O)NN)[nH]c(=O)c12"
  label-class: "inactive"

Ask | Test call, this compound: Cc1cc(Cl)ccc1NC(=O)c1cc2ccccc2cc1O
Reply | inactive

Ask | Test call, this compound: CC(=O)OCc1nc(C#N)c(N(C)C)o1
Reply | inactive

Ask | Test call, this compound: COc1ccc(C(=O)Nc2cccc(C3CC(=O)c4c(cc(OC)c(OC)c4OC)O3)c2)cc1 (stereo unspecified)
Reply | inactive

Ask | Test call, this compound: CS(=O)(=O)Nc1cc(-c2ccc3ncnc(Nc4ccc5c(cnn5Cc5ccccn5)c4)c3c2)cnc1Cl
Reply | inactive

Ask | Test call, this compound: CN1CCN(Cc2ccc(NC(=O)c3cncc(C#Cc4cnc(N)c5ccccc45)c3)cc2C(F)(F)F)CC1
Reply | active

---

Tested on: A498 renal
Assay: NCI-60 one-dose screen, 48 h (100 = growth as untreated, 0 = no growth, -100 = all killed)
Conditions: 10 µM unless noted
Description: Growth inhibition of the A498 human tumor cell line is measured as a screen for anti-cancer activity. Cells are grown in 96 well plates and exposed to the test compound for 48 hours. Compounds are tested at a single concentration, which is 10^-5 M for most compounds. The reported endpoint is percent growth (GI% or GIPRCNT), where numbers from 0 - 100% represent growth inhibition, and numbers from -100% - 0 represent cell death. For example, a value of 40 represents 60% growth inhibition. […]
About 83,000 compounds went through this panel and 20% of them were active in at least one assay; those are over-represented in the sample as a whole.
endpoint-label: growth (%)
One number for each entry, in %.

Look over these answered cases.
- chemical-structure: "O=C(Cn1c(-c2ccc([N+](=O)[O-])cc2)nc2ccccc21)NNC(=O)c1cccnc1"
  system-under-test: "A498 renal"
  growth / %: 65.1
- chemical-structure: "CS(=O)(=O)Nc1cc(-c2ccc3ncnc(Nc4c(Cl)ccc5c4OCO5)c3c2)cnc1Cl"
  system-under-test: "A498 renal"
  growth / %: -65.3
- chemical-structure: "C#Cc1cccc(Nc2ncnc3ccc(-c4cncc(NS(C)(=O)=O)c4)cc23)c1"
  system-under-test: "A498 renal"
  growth / %: -10.7
- chemical-structure: "O=C(Cc1ccccc1)Nc1nc(O)c(/C=C2\\C(=O)C=Cc3ccccc32)s1"
  system-under-test: "A498 renal"
  growth / %: 66.8
- chemical-structure: "CCCCCCCCCCCCCCCCCCOc1ccccc1CC(=O)NCC[N+]1(C)CCCC1"
  system-under-test: "A498 renal"
  growth / %: 71.5
- chemical-structure: "CN1CCN(Cc2ccc3c(NNC(=O)c4ccccc4)nc4cc(F)ccc4n23)CC1"
  system-under-test: "A498 renal"
  growth / %: -7.93

For every listed record, write down its growth.
1. COc1ccc2c(O)c(/C=C3\N=Nc4ncccc43)oc2c1C[C@H]1CCNC[C@H]1F
2. CN1CCN(c2ccc(NC(=O)c3cncnc3Nc3ccc(OCc4ccccn4)c(Cl)c3)cc2)CC1

Reply |
1. -41.8
2. 67.2

For every listed record, write down its growth.
1. CC1(C)c2[nH]c3ccccc3c2C[C@]2(C)[C@H]3CC=C4[C@@H]5C[C@@](C)(C(N)=O)CC[C@]5(C)CC[C@@]4(C)[C@]3(C)CC[C@@H]12
2. COC(=O)/C=C1/SC(=Nc2ccc(C)cc2)N(CCc2c[nH]c3ccc(O)cc23)C1=O

Reply |
67.9
67.1

For every listed record, write down its growth.
1. O=C(Nc1nn(-c2ccc(Cl)cc2Cl)nc1-c1ccccc1)c1ccccc1
2. C=C(C)[C@@H]1CC[C@]2(C(=O)OC)CC[C@]3(C)[C@H](CC[C@@H]4[C@@]5(C)C/C(=C/NC(N)=S)C(=O)C(C)(C)[C@@H]5CC[C@]43C)[C@@H]12
3. COc1ccc(C/C(C)=C(/c2ccc(OCCN3CCCCC3)cc2)c2ccc(OC(=O)NCc3ccccc3)cc2)cc1
4. CCOC(=O)/C=C1\S/C(=N\Nc2cc(=O)[nH]c3ccc(Cl)cc23)N(c2ccccc2)C1=O
5. O=C(NCCCN1CCOCC1)c1cccc(N2C(=O)/C(=C/c3ccc(F)cc3)SC2=S)c1
6. O=CC1(C2(C=O)c3ccccc3-c3ccccc32)c2ccccc2-c2ccccc21
7. C=C1C(=O)O[C@H]2[C@H]1CC/C(COC(=O)CSCCSCC(=O)OC/C1=C/CC[C@@]3(C)O[C@H]3[C@H]3OC(=O)C(=C)[C@@H]3CC1)=C\CC[C@@]1(C)O[C@@H]21

Reply |
1: 116; 2: 114; 3: -97.1; 4: 115; 5: 51.6; 6: -84.1; 7: 88.7
